target.desc: T1, rhCD39-ECD-His (R&D Systems) (human, UniProt P49961 38-478)
T1 construct: Bought protein; that entry runs on through the C-terminal transmembrane and cytoplasmic residues; also called recombinant human CD39 extracellular domain; soluble recombinant human CD39 (ENTDP1) ECD; not shown: His tag
T1 sequence: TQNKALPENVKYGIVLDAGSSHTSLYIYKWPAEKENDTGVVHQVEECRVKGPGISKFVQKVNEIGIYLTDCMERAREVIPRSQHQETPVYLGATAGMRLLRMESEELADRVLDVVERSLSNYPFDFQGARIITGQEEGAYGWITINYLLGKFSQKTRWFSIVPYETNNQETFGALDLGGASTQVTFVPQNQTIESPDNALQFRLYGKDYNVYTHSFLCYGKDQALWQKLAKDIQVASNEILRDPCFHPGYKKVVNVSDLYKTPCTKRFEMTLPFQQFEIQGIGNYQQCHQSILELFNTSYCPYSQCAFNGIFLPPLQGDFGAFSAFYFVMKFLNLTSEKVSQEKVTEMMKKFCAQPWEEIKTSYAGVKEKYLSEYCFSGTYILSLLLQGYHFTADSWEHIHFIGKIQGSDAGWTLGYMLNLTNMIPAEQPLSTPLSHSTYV
assay.method.text: BLI (Octet), IgG on anti-human Fc sensor, rhCD39-ECD-His 10-300 nM, 1:1 fit
Experimental: The kinetic data was globally fit with a simple 1:1 Langmuir binding model to yield on-rate (kon) and off-rate (koff) values. The equilibrium dissociation constants (KD) were calculated from the kon and koff values. Binding kinetics were measured using the Octet Red96 system (ForteBio) at 25° C. in running buffer (1× Pall ForteBio Kinetics Buffer diluted into PBS or Tris pH 7.4). […] Dissociation of the complex was monitored upon exposure of the sensors to running buffer once again. […]
property.label: kon

[[record]]
binder = "27597 (antibody, V domains shown) VH: QVQLVQSGAEVKKPGSSVKVSCKASGGTFSSYAISWVRQAPGQGLEWMGSIIPIFGTANYAQKFQGRVTITADESTSTAYMELSSLRSEDTAVYYCAREGRGYDSSRYYKFWFDPWGQGTLVTVSS VL: EIVLTQSPATLSLSPGERATLSCRASQSVSSYLAWYQQKPGQAPRLLIYDASNRATGIPARFSGSGSGTDFTLTISSLEPEDFAVYYCQQFVLWPRTFGGGTKVEIKR"
readout_value = "273000 M⁻¹ s⁻¹"

[[record]]
binder = "31421 (antibody, V domains shown) VH: QVQLVQSGAEVKKPGASVKVSCKASGYTFFSYYMYWVRQAPGQGLEWMGVINPLGGGTSYAQKFQGRVTMTRDTSTSTVYMELSSLRSEDTAVYYCARGKREGGTEYLRHWGQGTLVTVSS VL: EIVLTQSPGTLSLSPGERATLSCKASESVSSSYLAWYQQKPGQAPRLLIYYASSRATGIPDRFSGSGSGTDFTLTISRLEPEDFAVYYCQQYHRRITFGGGTKVEIK"
readout_value = "281000 M⁻¹ s⁻¹"

[[record]]
binder = "27596 (antibody, V domains shown) VH: QVQLVQSGAEVKKPGSSVKVSCKASGGTFSSYAISWVRQAPGQGLEWMGGIIPIFGTANYAQKFQGRVTITADESTSTAYMELSSLRSEDTAVYYCARDPLGIRKHWFDPWGQGTLVTVSS VL: EIVMTQSPATLSLSPGERATLSCRASQSVSSYLAWYQQKPGQAPRLLIYDASNRATGIPARFSGSGSGTDFTLTISSLEPEDFAVYYCQQHTVWPITFGGGTKVEIKR"
readout_value = "1.72e+06 M⁻¹ s⁻¹"

